Entries and their IC50
# target desc: HLA-A*0101 (human)
# method summary: peptide-HLA binding inhibition assay

LTFGRETVLEY (modifications not checked) [HBV core 137 epitope …] | 0.08 µM

Next binder, please.
I have this binder here, YSLNFMGY (modifications not checked) [HBV pol 580 epitope YSLNFMGY] , and I need its recorded IC50.
0.382 µM
